target: HCV NS5B (Hepatitis C virus genotype 1b, UniProt Q9WMX2); construct: fusion protein, of which the carboxyl terminal 21 amino acids were removed to enhance its solubility; His tag (GSHHHHHH); made in house; host or cells: E. coli; assay: Inhibition of viral RNA-dependent RNA polymerase (RdRp), in vitro biochemical assay; set-up: species or system HCV genotype 1b virus (BB7); details: HCV NS5B RdRp, BB7; class symbols A-D; read-out: HCV pol-BB7 IC50
attribute_measured: IC50

INSERT INTO assay_data (molecule, assayed_target, attribute_measured, result) VALUES
  ('CNC(=O)c1c(-c2ccc(F)cc2)oc2cc(N(CCF)S(C)(=O)=O)c(OC)cc12 [Example 307]', 'HCV NS5B (Hepatitis C virus genotype 1b, UniProt Q9WMX2)', 'IC50', '≤ 500 nM'),
  ('CNC(=O)c1c(-c2ccc(F)cc2)oc2ccc(OCc3cccc(C(=O)O)c3)cc12 [Example 260]', 'HCV NS5B (Hepatitis C virus genotype 1b, UniProt Q9WMX2)', 'IC50', '≤ 500 nM'),
  ('CNC(=O)c1c(-c2ccc(F)cc2)oc2cc(N(C)S(C)(=O)=O)c(OCc3c(C)noc3C)cc12 [Example 324]', 'HCV NS5B (Hepatitis C virus genotype 1b, UniProt Q9WMX2)', 'IC50', '≤ 500 nM'),
  ('CNC(=O)c1c(-c2ccc(F)cc2)oc2cc(N(Cc3cc(C)on3)S(C)(=O)=O)c(OC(C)C)cc12 [Example 282]', 'HCV NS5B (Hepatitis C virus genotype 1b, UniProt Q9WMX2)', 'IC50', '≤ 500 nM'),
  ('CNC(=O)c1c(-c2ccc(F)cc2)oc2cc(N(CC(C)O)S(C)(=O)=O)c(OC(C)C)cc12 (stereo not drawn) [Example 253]', 'HCV NS5B (Hepatitis C virus genotype 1b, UniProt Q9WMX2)', 'IC50', '≤ 500 nM'),
  ('CNC(=O)c1c(-c2ccc(F)cc2)oc2cc(N(CC(C)C)S(C)(=O)=O)c(O)cc12 [Example 326]', 'HCV NS5B (Hepatitis C virus genotype 1b, UniProt Q9WMX2)', 'IC50', '500 to 5000 nM'),
  ('CNC(=O)c1c(-c2ccc(F)cc2)oc2cc(N(C)S(C)(=O)=O)c(OCc3cccc(C(=O)O)c3)cc12 [Example 312]', 'HCV NS5B (Hepatitis C virus genotype 1b, UniProt Q9WMX2)', 'IC50', '≤ 500 nM'),
  ('CNC(=O)c1c(-c2ccc(F)cc2)oc2cc(N(C)S(C)(=O)=O)c(OCc3ccc(C(=O)OC)cc3)cc12 [Example 305]', 'HCV NS5B (Hepatitis C virus genotype 1b, UniProt Q9WMX2)', 'IC50', '≤ 500 nM'),
  ('CNC(=O)c1c(-c2ccc(F)cc2)oc2cc(N(C)S(C)(=O)=O)c(OCc3ccc(C(=O)O)cc3)cc12 [Example 311]', 'HCV NS5B (Hepatitis C virus genotype 1b, UniProt Q9WMX2)', 'IC50', '≤ 500 nM'),
  ('CNC(=O)c1c(-c2ccc(F)cc2)oc2cc(N(C)S(C)(=O)=O)c(OC(F)F)cc12 [Example 298]', 'HCV NS5B (Hepatitis C virus genotype 1b, UniProt Q9WMX2)', 'IC50', '≤ 500 nM'),
  ('CNC(=O)c1c(-c2ccc(F)cc2)oc2cc(N(CC(F)(F)F)S(C)(=O)=O)c(OC)cc12 [Example 308]', 'HCV NS5B (Hepatitis C virus genotype 1b, UniProt Q9WMX2)', 'IC50', '≤ 500 nM'),
  ('CNC(=O)c1c(-c2ccc(F)cc2)oc2cc(N(Cc3nc(C(=O)O)cs3)S(C)(=O)=O)c(OC(C)C)cc12 [Example 292]', 'HCV NS5B (Hepatitis C virus genotype 1b, UniProt Q9WMX2)', 'IC50', '≤ 500 nM'),
  ('CNC(=O)c1c(-c2ccc(F)cc2)oc2cc(C3CNC(=O)C3)c(OC)cc12 (stereo not drawn) [Example 315]', 'HCV NS5B (Hepatitis C virus genotype 1b, UniProt Q9WMX2)', 'IC50', '≤ 500 nM'),
  ('CNC(=O)c1c(-c2ccc(F)cc2)oc2cc(N(C)S(C)(=O)=O)c(OCc3cccc(OC)c3)cc12 [Example 325]', 'HCV NS5B (Hepatitis C virus genotype 1b, UniProt Q9WMX2)', 'IC50', '≤ 500 nM'),
  ('CNC(=O)c1c(-c2ccc(F)cc2)oc2cc(C(C)=O)c(O)cc12 [Example 276]', 'HCV NS5B (Hepatitis C virus genotype 1b, UniProt Q9WMX2)', 'IC50', '500 to 5000 nM');
